- Target Under Test: Progesterone receptor (Homo sapiens) (UniProt P06401)
- Sequence (P06401 whole entry, looked up): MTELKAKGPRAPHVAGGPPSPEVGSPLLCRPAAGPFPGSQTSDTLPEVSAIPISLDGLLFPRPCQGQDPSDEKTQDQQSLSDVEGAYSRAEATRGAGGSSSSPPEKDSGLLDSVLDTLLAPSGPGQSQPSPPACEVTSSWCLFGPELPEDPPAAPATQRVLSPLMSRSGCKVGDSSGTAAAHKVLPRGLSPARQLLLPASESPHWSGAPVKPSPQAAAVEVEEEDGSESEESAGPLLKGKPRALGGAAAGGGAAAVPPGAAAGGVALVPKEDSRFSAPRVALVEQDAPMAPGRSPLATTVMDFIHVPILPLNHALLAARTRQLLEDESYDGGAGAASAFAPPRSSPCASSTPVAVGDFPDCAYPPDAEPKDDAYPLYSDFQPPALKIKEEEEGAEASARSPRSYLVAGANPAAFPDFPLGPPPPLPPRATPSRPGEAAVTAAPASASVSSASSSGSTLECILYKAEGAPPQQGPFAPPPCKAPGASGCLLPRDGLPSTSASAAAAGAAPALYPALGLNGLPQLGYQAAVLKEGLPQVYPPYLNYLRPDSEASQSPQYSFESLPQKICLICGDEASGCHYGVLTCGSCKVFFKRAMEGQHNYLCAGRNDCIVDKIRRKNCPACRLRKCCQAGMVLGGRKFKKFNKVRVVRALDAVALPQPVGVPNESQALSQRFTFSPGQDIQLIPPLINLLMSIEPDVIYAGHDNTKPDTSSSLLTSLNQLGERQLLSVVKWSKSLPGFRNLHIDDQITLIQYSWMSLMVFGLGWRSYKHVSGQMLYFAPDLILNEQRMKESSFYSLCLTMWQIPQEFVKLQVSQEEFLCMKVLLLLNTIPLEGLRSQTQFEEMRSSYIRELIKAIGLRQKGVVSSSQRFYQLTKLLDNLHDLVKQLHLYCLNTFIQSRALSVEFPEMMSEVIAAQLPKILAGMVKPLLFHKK
- Test Summary: qHTS assay to identify small molecule antagonists of the progesterone receptor (PR) signaling pathway (AID 1346795); also: potency is read from the fitted curve at half-maximal effect
- Measurement Conditions: PR-UAS-bla HEK293T, beta-lactamase FRET ratio, 16 h; series mostly up to 92.4 µM
- Excerpt: National Center for Advancing Translational Sciences [NCATS] NIH Chemical Genomics Center [NCGC] U.S. Environmental Protection Agency [EPA] National Institutes of Environmental Health Sciences [NIEHS] National Toxicology Program [NTP] U.S. Food and Drug Administration [FDA] Progesterone receptor (PR), a nuclear hormone receptor, plays an important role in development, metabolic homeostasis and reproduction. […]
Inconclusive results are not listed. Calls of active or inactive are those of the source. Calls follow the shape of the dose curve; as a rule, active = well fitted inhibition curve with a large enough effect in the signal ratio in the repeat runs (not every such curve was filed as active); inconclusive = weak or mixed curves; inactive = flat fitted curve, though single readings scatter; the % refers to the signal ratio.
Parameter Measured: Potency

- Molecule: "CC1(C)C(=O)N(Br)C(=O)N1Br"
  Potency: "inactive"
- Molecule: "CCc1c(Br)c(Br)c(Br)c(Br)c1Br"
  Potency: "inactive"
- Molecule: "NC(=O)C(=O)N/N=C/c1ccc([N+](=O)[O-])o1"
  Potency: "inactive"
- Molecule: "Clc1ccc(C(c2ccccc2Cl)C(Cl)Cl)cc1 (configuration not stated)"
  Potency: "3.44 µM (active)"
- Molecule: "CC(=O)Oc1ccc(C2(c3ccc(OC(C)=O)cc3)C(=O)Nc3ccccc32)cc1"
  Potency: "inactive"

Below are some molecules; for each one, tell me its Potency.
1. O=C1OC(OC(=O)c2cccnc2Nc2cccc(C(F)(F)F)c2)c2ccccc21 (configuration not stated)
2. Clc1ccc(C(Cn2ccnc2)OCc2ccsc2Cl)c(Cl)c1 (configuration not stated)
3. CCN(CC)CCCN(c1ccccc1)C1Cc2ccccc2C1

["inactive", "3.35 µM (active)", "inactive"]

====

- Test Summary: qHTS assay to identify small molecule antagonists of the sonic hedgehog signaling (Shh) pathway - cell viability counter screen (AID 1259367); also: nearly all actives have a fitted effect of over 55% in size
- Measurement Conditions: NIH/3T3 Gli1-Luc viability, CellTiter-Fluor, 24 h; series mostly up to 92.4 µM
- Source text: National Center for Advancing Translational Sciences [NCATS] NIH Chemical Genomics Center [NCGC] U.S. Environmental Protection Agency [EPA] National Institutes of Environmental Health Sciences [NIEHS] National Toxicology Program [NTP] U.S. Food and Drug Administration [FDA] The sonic hedgehog (Shh) pathway is essential for normal embryonic development. Dysregulation of the Shh pathway can cause severe developmental defects in organs. […]
Records with an inconclusive call do not appear. Activity calls are given as the source filed them. The call rests on the fitted dose curve; in most records, active means well fitted cell-killing curve with a large enough effect in the repeat runs; inconclusive means weak or mixed curves, or effect the other way; inactive means no such curve, though single readings can be large or run the other way.
Reply using exactly one outcome from Yes (active), No (inactive)

- Compound: "CCc1ccc(O)c(C(C)(C)C)c1"
  Class Label: "No"
- Compound: "N#CSCSc1nc2ccccc2s1"
  Class Label: "Yes"
- Compound: "CCOC(OCC)C(=O)c1ccccc1"
  Class Label: "No"
- Compound: "CNCC[C@H](Oc1cccc2ccccc12)c1cccs1"
  Class Label: "Yes"
- Compound: "Cc1cncc(C)c1"
  Class Label: "No"
- Compound: "CCCN(CCc1cccs1)[C@H]1CCc2c(O)cccc2C1"
  Class Label: "No"
- Compound: "C=C(C)CCCC"
  Class Label: "No"
- Compound: "Cc1c(-c2ccc(O)cc2)n(Cc2ccc(OCCN3CCCCCC3)cc2)c2ccc(O)cc12"
  Class Label: "Yes"
- Compound: "Cc1cc(Nc2ccc(O)cc2)ccc1N"
  Class Label: "Yes"
- Compound: "Brc1ccccc1-c1ccccc1"
  Class Label: "No"

What did this assay record as the result for "CCCCCCCC/C=C\CCCCCCCC(=O)OCCOC(=O)CCCCCCC/C=C\CCCCCCCC" ? No

What did this assay record as the result for "Clc1cc(Cl)c(-c2c(Cl)c(Cl)cc(Cl)c2Cl)cc1Cl" ? No

What did this assay record as the result for "CN(Cc1cc(Br)cc(Br)c1N)C1CCCCC1" ? No

What did this assay record as the result for "CC=O" ? Yes

What did this assay record as the result for "C=CC/C=C/C/C=C/C/C=C/C" ? No

What did this assay record as the result for "c1cc[nH]c1" ? No

What did this assay record as the result for "CCOC(=O)CN" ? No

====

- Test Summary: A CellTox Green Cytotoxicity Assay to monitor cytotoxicity in HEK293 cells - 16 hour (AID 1224888); also: nearly all actives have a fitted effect of over 35% in size
- Measurement Conditions: CellTox Green fluorescence; series mostly up to 76.8 µM
Records with an inconclusive call do not appear. Active and inactive are the calls of the source. Calls come from the whole dose curve; as a rule, active = well fitted activation curve with a large enough effect in the repeat runs; inconclusive = weak or mixed curves; inactive = flat fitted curve, though single readings scatter.
Reply using exactly one outcome from active, inactive

- Compound: "C=CC(C)(CCC=C(C)C)OC(=O)/C=C/c1ccccc1 (centres undefined)"
  Class Label: "active"
- Compound: "CCCCCCC(C)Nc1ccc(Nc2ccccc2)cc1 (centres undefined)"
  Class Label: "inactive"
- Compound: "CCCOc1sc(C(=O)N2CCC(c3cc(CN)ccc3F)CC2)c(C)c1Br"
  Class Label: "active"

What did this assay record as the result for "CCCCCCCC/C=C\CCCCCCCC(=O)NCc1ccc(O)c(OC)c1" ? inactive

What did this assay record as the result for "O=Cc1ccc(F)cc1" ? inactive

What did this assay record as the result for "CCCCCCCC(C)=O" ? inactive

What did this assay record as the result for "CC(=O)C=O" ? inactive

What did this assay record as the result for "CCOCN(C(=O)CS(=O)(=O)O)c1c(C)cccc1CC" ? inactive

What did this assay record as the result for "CCCCCCCC(OC)OC" ? inactive

What did this assay record as the result for CCOC(=O)CC(C)O (centres undefined) ? inactive

What did this assay record as the result for "Cc1cc(=O)[nH]c(=O)[nH]1" ? inactive

What did this assay record as the result for CO[Si](CCC1CCC2OC2C1)(OC)OC (centres undefined) ? inactive

What did this assay record as the result for "CC(C)c1cccc(C(C)C)c1N1C(=O)c2ccc(O)cc2C1=O" ? inactive

What did this assay record as the result for "COc1cc(C=C2CCC/C(=C\c3ccc(O)c(OC)c3)C2=O)ccc1O" ? inactive

====

- Target Under Test: Peroxisome proliferator-activated receptor gamma (Homo sapiens)
- Test Summary: qHTS assay to identify small molecule agonists of the peroxisome proliferator-activated receptor gamma (PPARg) signaling pathway (AID 743094); as to activation: % is scaled to controls: 0 for no effect and ±100 for the full control effect
- Measurement Conditions: HEK293H PPARg-UAS-bla, beta-lactamase FRET ratio, 17 h; series mostly up to 57 µM
Results filed as inconclusive are left out. Active and inactive are the calls of the source. Calls follow the shape of the dose curve; as a rule, active = well fitted activation curve with a large enough effect in the signal ratio in the repeat runs (not every such curve was filed as active); inconclusive = weak or mixed curves, or effect the other way; inactive = no such curve, though single readings can be large or run the other way; the % refers to the signal ratio.
Reply using exactly one outcome from class 1 for active, class 0 for inactive

- Compound: "COC(=O)CC(C)CCC=C(C)C (stereo not given)"
  Class Label: "class 0"
- Compound: "CCCCNc1c(C(=O)OCC)c(C)nc2c1cnn2CC"
  Class Label: "class 0"
- Compound: "CN(Cc1cc(Br)cc(Br)c1N)C1CCCCC1"
  Class Label: "class 0"

What did this assay record as the result for CC1CCCNC1 (stereo not given) ? class 0

What did this assay record as the result for "[O]=[Zr]" ? class 0

What did this assay record as the result for "CCC(=O)OCCc1ccccc1" ? class 0

What did this assay record as the result for "c1ccc(Sc2ccccc2)cc1" ? class 0

What did this assay record as the result for "CCCCCCOc1cc(C)c(O)c(C)c1C" ? class 0

What did this assay record as the result for "O=C(c1ccccc1)c1cc(Cl)ccc1O" ? class 0

What did this assay record as the result for "CC(C)c1ccc(O)c(C(C)C)c1" ? class 0

What did this assay record as the result for "CNC(=S)NN" ? class 0

What did this assay record as the result for CCNc1nc(NC(C)CC)nc(OC)n1 (stereo not given) ? class 0

What did this assay record as the result for "COc1cc(C(=O)NS(=O)(=O)c2ccccc2C)ccc1Cc1cn(C)c2ccc(NC(=O)OC3CCCC3)cc12" ? class 1

What did this assay record as the result for "CCCCCCCOC(=O)c1ccc(O)cc1" ? class 0

What did this assay record as the result for "c1ccc(Nc2cccc3ccccc23)cc1" ? class 0

====

- Test Summary: qHTS assay to identify small molecule agonists of the vitamin D receptor (VDR) signaling pathway - cell viability counter screen (AID 743224); also: nearly all actives have a fitted effect of over 50% in size
- Measurement Conditions: VDR-bla HEK293T viability, CellTiter-Glo luminescence, 16 h; series mostly up to 62.6 µM
Results filed as inconclusive are left out. The source made the active and inactive calls. Calls follow the shape of the dose curve; as a rule, active = well fitted cell-killing curve with a large enough effect in the repeat runs; inconclusive = weak or mixed curves, or effect the other way; inactive = no such curve, though single readings can be large or run the other way.
Reply using exactly one outcome from active, inactive

What did this assay record as the result for "S=P(N1CC1)(N1CC1)N1CC1" ? active

What did this assay record as the result for "[O]=[Zr]" ? inactive

What did this assay record as the result for "Cc1ccc(-n2[nH]c(C)c(N=Nc3cccc(-c4cccc(C(=O)O)c4)c3O)c2=O)cc1C" ? inactive

What did this assay record as the result for C1CC(COCC2CO2)CCC1COCC1CO1 (centres undefined) ? inactive

====

- Test Summary: A CellTox Green Cytotoxicity Assay to monitor cytotoxicity in HEK293 cells - 8 hour (AID 1224884); also: % is scaled to controls: 0 for no effect and ±100 for the full control effect; nearly all actives have a fitted effect of over 35% in size
- Measurement Conditions: CellTox Green fluorescence; series mostly up to 76.8 µM
Results filed as inconclusive are left out. The source made the active and inactive calls. Calls come from the whole dose curve; as a rule, active = well fitted activation curve with a large enough effect in the repeat runs; inconclusive = weak or mixed curves; inactive = flat fitted curve, though single readings scatter.
Reply using exactly one outcome from active, inactive

- Compound: "c1ccc(Nc2cccc3ccccc23)cc1"
  Class Label: "inactive"

What did this assay record as the result for "CCN(CC)CCNc1ccc(CO)c2sc3ccccc3c(=O)c12" ? inactive

What did this assay record as the result for "Oc1cc2ccccc2cc1O" ? inactive

What did this assay record as the result for "Cc1cncc(C)c1" ? inactive

What did this assay record as the result for "CCCCCCCCCCCCCc1ccccc1" ? inactive

What did this assay record as the result for "CCO[Si](CCCSSSSCCC[Si](OCC)(OCC)OCC)(OCC)OCC" ? inactive
